Values were extracted from the Immune Epitope Database (IEDB).

# target: HLA-B*44:03
# experimentDescription: IEDB peptide-MHC binding, purified MHC/competitive/radioactivity; filed as Kd, often an IC50 or EC50 that approximates it; bounds were set here for any values at or beyond the usual limits of such assays
# experimentalParameters: source organism: Dengue virus 1 Singapore/S275/1990
readoutLabel: Kd (nM)

1) KEISNMLNI 68.7

###

# target: HLA-B*18:01
# experimentDescription: IEDB peptide-MHC binding, purified MHC/direct/fluorescence; filed as Kd, often an IC50 or EC50 that approximates it; bounds were set here for any values at or beyond the usual limits of such assays
# experimentalParameters: source organism: Vibrio parahaemolyticus
pKd: −log10 of the molar value.
readoutLabel: pKd

1) LVAPHMAMM ≤ 4.70

###

# target: HLA-A*31:01
# experimentDescription: IEDB peptide-MHC binding, purified MHC/competitive/fluorescence; filed as Kd, often an IC50 or EC50 that approximates it; bounds were set here for any values at or beyond the usual limits of such assays
# experimentalParameters: source organism: Escherichia coli 101-1
readoutLabel: Kd (µM)

1) HTFTAPIAK 0.0191

###

# target: HLA-B*15:17
# experimentDescription: IEDB peptide-MHC binding, purified MHC/competitive/fluorescence; filed as Kd, often an IC50 or EC50 that approximates it; bounds were set here for any values at or beyond the usual limits of such assays
# experimentalParameters: source organism: Araucaria virus
readoutLabel: Kd

1) LYVAGVPEL ≥ 20 µM

###

# target: HLA-A*11:01
# experimentDescription: IEDB peptide-MHC binding, purified MHC/competitive/fluorescence; filed as Kd, often an IC50 or EC50 that approximates it; bounds were set here for any values at or beyond the usual limits of such assays
# experimentalParameters: source organism: Variola virus
readoutLabel: Kd

1. ETIEILRNY ≥ 20 µM

###

# target: HLA-A*24:03
# experimentDescription: IEDB peptide-MHC binding, purified MHC/direct/fluorescence; filed as Kd, often an IC50 or EC50 that approximates it; bounds were set here for any values at or beyond the usual limits of such assays
# experimentalParameters: source organism: Rickettsia felis URRWXCal2
pKd: −log10 of the molar value.
readoutLabel: pKd

1) GYTVARSQL 7.66

###

This section presents sequences with their documented Kd values.
# target: HLA-A*26:01
# experimentDescription: IEDB peptide-MHC binding, purified MHC/competitive/radioactivity; filed as Kd, often an IC50 or EC50 that approximates it; bounds were set here for any values at or beyond the usual limits of such assays
# experimentalParameters: source organism: Lymphocytic choriomeningitis virus (strain Armstrong)
readoutLabel: Kd

1. KCWLVTNGSY ≥ 69.7 µM
2. LIFRGPNVV ≥ 77.9 µM

###

# target: HLA-A*69:01
# experimentDescription: IEDB peptide-MHC binding, purified MHC/direct/fluorescence; filed as Kd, often an IC50 or EC50 that approximates it; bounds were set here for any values at or beyond the usual limits of such assays
# experimentalParameters: source organism: Cowpox virus
readoutLabel: Kd

1) TLNHNCINV 136 nM

###

# target: HLA-A*02:19
# experimentDescription: IEDB peptide-MHC binding, purified MHC/direct/fluorescence; filed as Kd, often an IC50 or EC50 that approximates it; bounds were set here for any values at or beyond the usual limits of such assays
# experimentalParameters: source organism: Vibrio parahaemolyticus RIMD 2210633
pKd: −log10 of the molar value.
readoutLabel: pKd

1. DTWHGFKNM ≤ 4.70
